Hello, the source for this data is ChEMBL document CHEMBL1147771, in case you need it.

Listed below: MIC values for each entry.
Tested on: Escherichia coli
Protocol notes: Antibacterial activity against Escherichia coli UBMS 90-4 carrying tetM-resistant determinant
Assay type: functional
Give the quantity in µg/mL, number only.

Compound	Measurement
CN(C)c1cc(NC(=O)CNC2CCCC2)c(O)c2c1CC1CC3[C@H](N(C)C)C(=O)C(C(N)=O)=C(O)[C@@]3(O)C(=O)C1=C2O (stereo partly specified)	0.25

get_value(item= CN(C)c1cc(NC(=O)CNC(C)(C)C)c(O)c2c1C[C@H]1C[C@H]3[C@H](N(C)C)C(O)=C(C(N)=O)C(=O)[C@@]3(O)C(O)=C1C2=O [TIGECYCLINE] , readout=MIC) returns 0.12

get_value(item= CN(C)CC(=O)Nc1cc(N(C)C)c2c(c1O)C(=O)C1=C(O)[C@]3(O)C(O)=C(C(N)=O)C(=O)[C@@H](N(C)C)C3CC1C2 (stereo partly specified) , readout=MIC) returns 0.25

get_value(item= CN(C)CCCC(=O)Nc1cc(N(C)C)c2c(c1O)C(=O)C1=C(O)[C@]3(O)C(O)=C(C(N)=O)C(=O)[C@@H](N(C)C)C3CC1C2 (stereo partly specified) , readout=MIC) returns 16
